Property: TGI; scope: individual compounds
system: MALME-3M melanoma; experiment: NCI tumour cell line growth inhibition, 48 h

These recorded examples may help you get a feel for the data.
{"compound": "CC1CC(C)C(C(O)CC2CC(=O)N(c3ccccc3)C(=O)C2)C(O)C1 (stereo not drawn)", "TGI": "> 100 µM"}
{"compound": "COc1ccc2c(c1)[n+](=O)c(C(C)=O)c(C)n2[O-]", "TGI": "> 100 µM"}

Then this compound:
Input: Any idea what its TGI is? The compound is Cc1cc(C)nc(NS(=O)(=O)c2ccc(Nc3c4ccccc4nc4ccc(C(=O)Nc5ccc(S(=O)(=O)N=C(N)N)cc5)cc34)cc2)n1
Output: > 100 µM

* * *

system: A498 renal; experiment: NCI tumour cell line growth inhibition, 48 h
readout: TGI

{"molecule": "CC(CC=O)Nc1nn2c(=O)c3ccccc3nc2s1 (stereo not given)", "test system": "A498 renal", "TGI": "> 100 µM"}

Input: Any idea what its TGI is? The molecule is O=C1C2CC[C@@H]3C(=O)C(Cl)(Cl)[C@@H]3CCC2C1(Cl)Cl (stereo not given in full)
Output: > 100 µM

Input: Any idea what its TGI is? The molecule is COc1ccc(/C=N/Nc2nnc3c(n2)c2ccccc2c2nn(-c4ccccc4Cl)nc23)cc1
Output: > 100 µM

Input: Any idea what its TGI is? The molecule is COc1cc(N(CCC#N)CCC#N)ccc1/C(N=Nc1ccc(C(=O)O)cc1)=N/NC(=O)c1cc(Br)ccc1O
Output: > 150 µg/mL

Input: Any idea what its TGI is? The molecule is COc1cc(CCc2ccc(OC(C)=O)cc2)cc(OC)c1OC
Output: > 100 µM

* * *

system: CCRF-CEM leukemia; assay: NCI tumour cell line growth inhibition, 48 h; in the data active = GI50 below about 0.43 µM; inactive = the rest
Reply using exactly one outcome from yes (1) = active, no (0) = inactive

Input: Look up the recorded call for C=C(Cl)[C@@](Cl)(CBr)CC[C@@H](Br)C(C)(C)Cl in this test.
Output: no (0)

Input: Look up the recorded call for NC(N)=N/N=C/c1c(-c2ccncc2)nc2sc(Cl)cn12 in this test.
Output: no (0)

Input: Look up the recorded call for CNCc1ccc(-c2[nH]c3cc(F)cc4c3c2CCNC4=O)cc1 in this test.
Output: no (0)

Input: Look up the recorded call for N/C(=N\C(N)=N\c1nc2ccccc2s1)c1cnccn1 in this test.
Output: no (0)

Input: Look up the recorded call for N#CC(NC(=O)CCl)=C(Cl)Cl in this test.
Output: yes (1)

Input: Look up the recorded call for O=c1nc2[nH]c3c(-c4n[nH]c(=O)[nH]c4=O)cccc3c2n[nH]1 in this test.
Output: no (0)

Input: Look up the recorded call for COC(=O)c1ccc2[nH]c(O)c(C(=Nc3ccc(N(C)C(=O)CN4CCN(C)CC4)cc3)c3ccccc3)c2c1 in this test.
Output: no (0)

Input: Look up the recorded call for C#Cc1cccc(NC(=O)C2CCCN(C(=O)CCl)C2)c1 (stereo not drawn) in this test.
Output: no (0)

* * *

test system: CCRF-CEM leukemia; test: NCI tumour cell line growth inhibition, 48 h
Where a SMILES comes first, the peptide text is derived from it. The star is where a group is joined. Cbz = O=C(OCc1ccccc1)*; Boc = CC(C)(C)OC(=O)*; OSu = O=C1CCC(=O)N1O*; Bn = c1ccc(C*)cc1
readout: TGI

These recorded examples may help you get a feel for the data.
{"compound": "c1cc2c(cc1[C@@H]1OC[C@@H]3[C@H]1CO[C@H]3c1ccc3c(c1)OCO3)OCO2", "TGI": "> 100 µM"}
{"compound": "O=C(NCc1ccccc1Cl)c1c(O)c2ccccc2[nH]c1=O", "TGI": "> 100 µM"}
{"compound": "N#CCC1(n2cc(-c3ncnc4[nH]ccc34)cn2)CN(C2CCN(C(=O)c3ccnc(C(F)(F)F)c3F)CC2)C1", "TGI": "> 100 µM"}

Input: Any idea what its TGI is? The compound is COC(=O)c1ccccc1C1CN=NC12Cc1c(C)ccc(C)c1C2=O (stereo not given)
Output: > 100 µM

Input: Any idea what its TGI is? The compound is CC(C)(C)OC(=O)NC(Cc1ccc(OCc2ccccc2)cc1)C(=O)NC(CCCCNC(=O)OCc1ccccc1)C(=O)NC(CCCCNC(=O)OCc1ccccc1)C(=O)ON1C(=O)CCC1=O (stereo not given) (Boc-Tyr(Bn)-Lys(Cbz)-Lys(Cbz)-OSu; configuration not given here)
Output: > 100 µM

* * *

test system: SNB-19 CNS; assay: NCI tumour cell line growth inhibition, 48 h
readout: TGI

{"molecule": "CSc1nc(C)c2c(n1)N(c1ccc(Cl)cc1)CC2", "TGI": "> 100 µM"}

Input: Any idea what its TGI is? The molecule is O=c1[nH]c2ccc([N+](=O)[O-])cc2nc1/C(=N/Nc1ccccc1)C(O)c1ccco1 (stereo unspecified)
Output: > 100 µM

Input: Any idea what its TGI is? The molecule is Cn1ccnc1C(=O)/C=C/c1ccc(C(=O)Nc2c(F)c(F)c(F)c(F)c2F)cc1
Output: 3.24 µM

Input: Any idea what its TGI is? The molecule is CCCCCCCCCCCCCCC(C)CCC(=O)O (stereo unspecified)
Output: > 100 µM

Input: Any idea what its TGI is? The molecule is COc1cc(/C=C2\C(=O)N(C)c3ccccc32)cc(OC)c1OC
Output: > 100 µM

Input: Any idea what its TGI is? The molecule is CC(=O)N[C@@H](Cc1ccc(O)cn1)C(=O)NC1CCCCC1
Output: > 100 µM

Input: Any idea what its TGI is? The molecule is COc1cc(/C=C2/Oc3c(OC)cccc3C2=O)ccc1O
Output: > 100 µM

Input: Any idea what its TGI is? The molecule is COc1ccc2c(c1)CC[C@@H]1C2CC[C@]2(C)C(=C=CP(=O)(O)O)CCC12 (stereo partly specified)
Output: > 100 µM

* * *

tested on: MCF7 breast; assay: NCI tumour cell line growth inhibition, 48 h
readout: TGI

These recorded examples may help you get a feel for the data.
{"compound": "COc1cc2c(cc1OC)C(=O)N(c1ccc(OCCN3CCCC3)cc1)C2=O", "result": "> 100 µM"}
{"compound": "CC(C)=CCCC1(C)C2COC(=O)C21 (centres undefined)", "result": "> 100 µM"}
{"compound": "O=C1C2CC[C@@H]3C(=O)C(Cl)(Cl)[C@@H]3CCC2C1(Cl)Cl (some centres undefined)", "result": "> 91.1 µM"}
{"compound": "CC(C)=Nn1cnc2c1NC(C)(C)N=C2C(N)=O", "result": "> 10 µM"}
{"compound": "CCc1cc2c(c3c1CCCC3=O)CC1(C2)Cc2cc(CC)c3c(c2C1)C(=O)CCC3", "result": "> 100 µM"}
{"compound": "COc1ccc(/C(C)=C(\\c2ccc(Cl)cc2)c2ccc(OCCN3CCCCCC3)cc2)cc1F", "result": "11.1 µM"}
{"compound": "Cc1ccc(-n2cc(-c3ccc(Cl)cc3)c3c(=N)n(N)cnc32)cc1", "result": "23.2 µM"}
{"compound": "Cc1cc2c(cc1Cl)Sc1n[nH]c(=O)n1S2(=O)=O", "result": "> 100 µM"}
{"compound": "c1cc2c(cc1[C@@H]1OC[C@@H]3[C@H]1CO[C@H]3c1ccc3c(c1)OCO3)OCO2", "result": "> 100 µM"}
{"compound": "COC1OC(C(=O)O)C2OC(C)(C)OC12 (centres undefined)", "result": "> 100 µM"}

Then this compound:
Input: Any idea what its TGI is? The compound is Cc1ccc(NCCN(C)C)c2c(=O)c3cc(O)ccc3sc12
Output: 1.59 µM

* * *

Property: TGI; scope: individual compounds
test system: HT29 colon; assay: NCI tumour cell line growth inhibition, 48 h
Number in µM, nothing else.

{"compound string": "OCCCCC#Cc1ccccc1C#Cc1ccc(C(F)(F)F)cc1", "test system": "HT29 colon", "readout": "TGI", "quantitative result": 18.1}

Then this compound:
Input: Any idea what its TGI is? The compound is COc1cc2c(cc1OCCCOc1ccc(-c3cc4ccccc4c4ccccc34)cc1)N=C[C@@H]1CCCN1C2=O
Output: 2.11

* * *

system: SNB-75 CNS; experiment: NCI tumour cell line growth inhibition, 48 h
Property: TGI; scope: individual molecules

{"molecule": "CC(C)=CCC/C(C)=C/C=C/C(C)=C/C1C[C@@]2(C(O)O1)[C@H](CCCO)/C(=C(/C)C=O)CC[C@]2(C)O (stereo partly drawn)", "test system": "SNB-75 CNS", "TGI": "69.9 µM"}
{"molecule": "CC1(C)CC[C@]2(C(=O)O)CC[C@]3(C)C(=CC[C@@H]4[C@@]5(C)C/C(=C/c6ccco6)C(=O)C(C)(C)[C@@H]5CC[C@]43C)[C@@H]2C1", "test system": "SNB-75 CNS", "TGI": "54.6 µM"}
{"molecule": "COC(=O)CC1CC2(C(=O)OC)c3[nH]c4ccccc4c3CCN2C1=O (stereo not drawn)", "test system": "SNB-75 CNS", "TGI": "> 100 µM"}
{"molecule": "C[n+]1c(-c2ccc(/C=N/NC(=O)C(=O)N/N=C/c3ccc(-c4cn5ccccc5[n+]4C)cc3)cc2)cn2ccccc21", "test system": "SNB-75 CNS", "TGI": "> 100 µM"}
{"molecule": "CCOC(=O)c1csc(NC(=O)C(C)N2CCOCC2)n1 (stereo not drawn)", "test system": "SNB-75 CNS", "TGI": "> 100 µM"}
{"molecule": "C#CC#CC#CC#CC#CC#CC#CC#CC[C@@H]1OC[C@@H](COC(=O)O[C@@H](C(=O)O[C@H]2C[C@@]3(O)[C@@H](OC(=O)c4ccccc4)[C@@H]4[C@]5(OC(C)=O)CO[C@@H]5C[C@H](O)[C@@]4(C)C(=O)[C@H](OC(C)=O)C(=C2C)C3(C)C)[C@@H](NC(=O)c2ccccc2)c2ccccc2)O1", "test system": "SNB-75 CNS", "TGI": "0.469 µM"}

Then this molecule:
Input: Any idea what its TGI is? The molecule is COC(=O)[C@H](Cc1cn(C)cn1)NC(=O)[C@@H](NC(=O)Nc1cc(C(F)(F)F)cc(C(F)(F)F)c1)C(C)C
Output: > 10 µM
